Values were extracted from patent US20260191863A1.

Experiment: Phase 1 single ascending dose (SAD) study: pharmacokinetics, food effect, formulation bridging
Type: in vivo, human
Conditions: both sexes, human, in vivo, po, 5 mg, single oral dose 5 mg, capsule, fasted
Method: Type of Study—This was an FIH, randomized, observer-blind, placebo-controlled study designed to evaluate the safety, tolerability, PK, and PD of Compound I in healthy subjects. The study consisted of: single ascending dose (SAD) cohorts (1-80 mg/day) plus formulation bridging and food effect (FE) cohorts. Approximately 64 male and female subjects were enrolled into 8 planned cohorts in the SAD study. […]
assay.metric: AUC(0-inf) (ng·h/mL)

- chemical.smiles: "C=CC(=O)N1C[C@H](Nc2ncnc3[nH]cc([C@H]4CC4(F)F)c23)CC[C@@H]1C"
  readout.value: 33.5

* * *

assay: Phase 1 single ascending dose (SAD) study: pharmacokinetics, food effect, formulation bridging; type: in vivo, human; conditions: both sexes, human, in vivo, oral, SAD, 1-80 mg single dose; read-out: Tmax (range across doses)

- chemical.smiles: "C=CC(=O)N1C[C@H](Nc2ncnc3[nH]cc([C@H]4CC4(F)F)c23)CC[C@@H]1C"
  Tmax: "42 to 72 min"

* * *

test: Phase 1 multiple ascending dose (MAD) study: pharmacokinetics; assay type: in vivo, human; details: human, plasma, oral, 40 mg, Cohort 5, 40 mg BID, Day 1; read-out: Geometric Mean Tmax

- chemical.smiles: "C=CC(=O)N1C[C@H](Nc2ncnc3[nH]cc([C@H]4CC4(F)F)c23)CC[C@@H]1C"
  Tmax, min: 50.4

* * *

experiment: Phase 1 multiple ascending dose (MAD) study: pharmacokinetics; assay type: in vivo, human; conditions: human, plasma, oral, 30 mg, Cohort 3a, 30 mg QD, Day 15; read-out: Geometric Mean Cmax

- chemical.smiles: "C=CC(=O)N1C[C@H](Nc2ncnc3[nH]cc([C@H]4CC4(F)F)c23)CC[C@@H]1C"
  Cmax [ng/mL]: 119

* * *

test: Phase 1 multiple ascending dose (MAD) study: pharmacokinetics; type: in vivo, human; conditions: human, plasma, oral, 5 mg, Cohort 1, 5 mg BID, Day 15; read-out: Geometric Mean AUCINF_obs
assay.metric: AUC(0-inf) (ng·h/mL)

- chemical.smiles: "C=CC(=O)N1C[C@H](Nc2ncnc3[nH]cc([C@H]4CC4(F)F)c23)CC[C@@H]1C"
  unit.text: "ng·h/mL"
  readout.value: 32

* * *

assay: 13 week toxicology and toxicokinetic study in cynomolgus monkeys; format: in vivo, cynomolgus monkey; conditions: cynomolgus monkey, in vivo, 12 mg/kg, monkey 12 mpk, Day 1; read-out: AUC0-24

- chemical.smiles: "C=CC(=O)N1C[C@H](Nc2ncnc3[nH]cc([C@H]4CC4(F)F)c23)CC[C@@H]1C"
  AUC(0-t): "2510 ng·h/mL"

* * *

assay: Phase 1 multiple ascending dose (MAD) study: pharmacokinetics; assay type: in vivo, human; settings: human, plasma, oral, 15 mg, Cohort 2, 15 mg BID, Day 1; read-out: Geometric Mean AUCINF_obs
assay.metric: AUC(0-inf) (ng·h/mL)

- molecule: "C=CC(=O)N1C[C@H](Nc2ncnc3[nH]cc([C@H]4CC4(F)F)c23)CC[C@@H]1C [Compound I]"
  unit.text: "ng·h/mL"
  readout.value: 71

* * *

assay: Phase 1 multiple ascending dose (MAD) study: pharmacokinetics; assay type: in vivo, human; settings: human, plasma, oral, 15 mg, Cohort 2, 15 mg BID, Day 7; read-out: Geometric Mean Tmax
assay.metric: Tmax (min)

- compound: "C=CC(=O)N1C[C@H](Nc2ncnc3[nH]cc([C@H]4CC4(F)F)c23)CC[C@@H]1C [Compound I]"
  readout.value: 46.2
